Where these numbers come from: patent US9920030B2

As shown below, each of these compounds has a reported Percent Disease Control, Test A value.
# Test system: Plasmopara vilicola (the causal agent of grape downy mildew)
# Method Description: Test A: grape downy mildew, test suspension sprayed on grape seedlings after inoculation, visual disease rating
# Format: in vivo
# Conditions Used: ** tested at l0 ppm
# Description: General protocol for preparing test suspensions for Test A-C: The test compounds were first dissolved in acetone in an amount equal to 3% of the final volume and then suspended at the desired concentration (in ppm) in acetone and purified water (50/50 mix by volume) containing 250 ppm of the surfactant Trem® 014 (polyhydric alcohol esters). The resulting test suspensions were then used in Tests A-C. […]
Provide the reading as a plain figure in %.

# count of solved cases: 5
Cc1cc(C(F)(F)F)nn1CC(=O)N1CCC(c2nc(C3=NC(c4ccccc4)CO3)cs2)CC1 (stereo not shown) [Compound 31] | 84
Cc1cc(C(F)(F)F)nn1CC(=O)N1CCC(c2nc(C3=NOC(c4ccccc4)C3)cs2)CC1 (single isomer, unassigned) [Compound 4] | 100
Cc1cc(C(F)(F)F)nn1CC(=O)N1CCC(c2nc(C3=NOC(n4c(=O)sc5ccc(Cl)cc54)C3)cs2)CC1 (stereo not shown) [Compound 280] | 92
O=C(Cn1nc(C(F)(F)F)cc1C(F)(F)F)N1CCC(c2nc(C3=NO[C@]4(CCc5ccccc54)C3)cs2)CC1 (racemic) [Compound 231] | 100
Cc1cc(C)n(CC(=O)N2CCC(c3nc(C4=NO[C@]5(CCc6ccccc65)C4)cs3)CC2)n1 [Compound 165] | 99

Percent Disease Control, Test A in this record for O=C(Cn1nc(Cl)cc1Cl)N1CCC(c2nc(C3=NOC(c4ccccc4)C3)cs2)CC1 (stereo not shown) [Compound 166] : 100

Percent Disease Control, Test A in this record for Cc1cc(C(F)(F)F)nn1CC(=O)N1CCC(c2nc(C3=NOC(N4C(=O)CCCC4=O)C3)cs2)CC1 (stereo not shown) [Compound 243] : 99

* * *

Attribute Measured: melting point

# count of solved cases: 3
CCc1cc(C(F)(F)F)nn1CC(=O)N1CCC(c2nc(C3=NOC(c4ccccc4)C3)cs2)CC1 (centres unmarked) | 128 to 133 °C
Cc1cc(C(F)(F)F)nn1CC(=O)N1CCC(c2nc(C3=NOC(C)(c4ccccc4)C3)cs2)CC1 (centres unmarked) | 97 to 100 °C
Cc1cc(C(F)(F)F)nn1CC(=O)N1CCC(c2nc(C3=NOC4c5ccccc5CCC34)cs2)CC1 (centres unmarked) | 162 to 165 °C

melting point in this record for O=C(Cn1nc(C(F)(F)F)cc1C(F)(F)F)N1CCC(c2nc(C3=NOC(c4ccccc4)C3)cs2)CC1 (centres unmarked) : 130 to 133 °C

melting point in this record for COc1ccc(C2CC(c3csc(C4CCN(C(=O)Cn5nc(C(F)(F)F)cc5C)CC4)n3)=NO2)cc1 (centres unmarked) : 119 to 124 °C

* * *

# Tested on: Phytophthora infestans (the causal agent of tomato late blight)
# Method Description: whole plant or invertebrate
# Assay type: in vivo
# Conditions Used: Phytophthora infestans, 144 h, read-out: Percent Disease Control, Test B
Attribute Measured: pest or weed control at 40 ppm
Phrase the answer as number then unit, nothing more needed.

Cc1cc(C(F)(F)F)n(CC(=O)N2CCC(c3nc(C4=NOC(c5ccccc5)C4)cs3)CC2)n1 (stereo not shown) | 100%
Cc1cc(C(F)(F)F)nn1CC(=O)N1CCC(c2nc(C3=NOC4(CCOc5ccccc54)C3)cs2)CC1 (stereo not shown) | 100%
Cc1cccc(C)c1[C@H]1CC(c2csc(C3CCN(C(=O)Cn4nc(C(F)(F)F)cc4C)CC3)n2)=NO1 | 100%

# next compound below
pest or weed control at 40 ppm in this record for O=C(Cn1nc(C(F)(F)F)cc1C(F)(F)F)N1CCC(c2nc(C3=NOC(c4ccccc4)C3)cs2)CC1 (stereo not shown) : 100%
